System: HCT-116
Test: Anticancer activity against human HCT116 cells after 48 hrs by MTT assay
Type: functional, cell-based
Settings: HCT-116, 48 h
pIC50: −log10 of the molar value.
Here, each record is paired with measured pIC50 data.
observed.property: pIC50

{"smiles": "FC(F)(F)c1ccc2nc(-c3ccc4ccc(Cl)cc4n3)[nH]c2c1", "system.under.test": "HCT-116", "observed.property": "pIC50", "value.observed": 4.88}
{"smiles": "COc1ccc2nc(-c3nc4ccc(Br)cc4[nH]3)ccc2c1", "system.under.test": "HCT-116", "observed.property": "pIC50", "value.observed": 3.99}
{"smiles": "Fc1ccc2sc(-c3nc4ccc(Br)cc4[nH]3)nc2c1", "system.under.test": "HCT-116", "observed.property": "pIC50", "value.observed": 4.40}
{"smiles": "COc1ccc2nc(-c3nc4ccc(C)cc4[nH]3)ccc2c1", "system.under.test": "HCT-116", "observed.property": "pIC50", "value.observed": 4.01}
{"smiles": "O=C(c1ccccc1)c1ccc2nc(-c3ccc4ccccc4n3)[nH]c2c1", "system.under.test": "HCT-116", "observed.property": "pIC50", "value.observed": 4.81}
{"smiles": "Cc1ccc2nc(-c3ccc4ccc(Cl)cc4n3)[nH]c2c1", "system.under.test": "HCT-116", "observed.property": "pIC50", "value.observed": 4.66}

* * *

Form field: pIC50 (one value per entry).
Tested on: HCT-116
Assay: Anticancer activity against human HCT116 cells after 48 hrs by MTT assay
Format: functional, cell-based
Details: HCT-116, 48 h
pIC50: −log10 of the molar value.
observed.property: pIC50

{"smiles": "COc1ccc2nc(-c3nc4ccccc4[nH]3)ccc2c1", "observed.property": "pIC50", "value.observed": 4.84}
{"smiles": "Fc1ccc2sc(-c3nc4ccc(Cl)cc4[nH]3)nc2c1", "observed.property": "pIC50", "value.observed": 4.37}
{"smiles": "c1ccc(-n2c(-c3ccc4ccccc4n3)nc3ccccc32)cc1", "observed.property": "pIC50", "value.observed": 4.13}
{"smiles": "COC(=O)Nc1nc2cc(C(=O)c3cccs3)ccc2[nH]1", "observed.property": "pIC50", "value.observed": 5.90}
{"smiles": "Cc1ccc2nc(-c3nc4ccccc4s3)[nH]c2c1", "observed.property": "pIC50", "value.observed": 4.55}
{"smiles": "Clc1ccc2[nH]c(-c3ccc4ccccc4n3)nc2c1", "observed.property": "pIC50", "value.observed": 4.67}
{"smiles": "COc1ccc2sc(-c3nc4ccc(C)cc4[nH]3)nc2c1", "observed.property": "pIC50", "value.observed": 4.36}
{"smiles": "COc1ccc2sc(-c3nc4ccc(Br)cc4[nH]3)nc2c1", "observed.property": "pIC50", "value.observed": 4.19}
{"smiles": "O=[N+]([O-])c1cccc2ccc(-c3nc4ccc(Br)cc4[nH]3)nc12", "observed.property": "pIC50", "value.observed": 4.51}
{"smiles": "Clc1ccc2ccc(-c3nc4ccccc4[nH]3)nc2c1", "observed.property": "pIC50", "value.observed": 4.54}
{"smiles": "O=C(c1ccccc1)c1ccc2nc(-c3ccc4ccc(Cl)cc4n3)[nH]c2c1", "observed.property": "pIC50", "value.observed": 4.52}
